Reference source for all entries: patent US10752596B2

We begin with a simple list: items and their reported IC50.
Target: human GLUT9 (Homo sapiens (Human))
Assay: Evaluation of human GLUT9 inhibitory activity ([14C] uric acid uptake in human GLUT9 expressing HEK293T cells transduced with Uricase/Hyper)
Format: cell-based
Conditions: final 300 μM uric acid, 6 min, human GLUT9 stably expressing HEK293T cells, read-out: humans GLUT9 inhibitory activity (IC50 value (μM))
Numeric only. Scale: µM

Worked examples follow.
[[record]]
linenotation = "CCCCc1cnc(-c2ccc(CC#N)cc2)c(-c2ccc(C(=O)O)cc2)n1"
val = 1.79

[[record]]
linenotation = "COCCCc1cnc(-c2ccc(OC)c(F)c2)c(-c2ccc(C(=O)O)c(F)c2)n1"
val = 1

[[record]]
linenotation = "COCc1cnc(-c2ccc(OC)cc2)c(-c2ccc(C(=O)O)cc2)c1"
val = 2.21


Give the reported IC50 for `CCCOCc1cnc(-c2ccc(OC)cc2)c(-c2ccc(C(=O)O)c(C)c2)c1` (system: human GLUT9 (Homo sapiens (Human))).
0.125

---

Molecular target: human GLUT9 (Homo sapiens (Human), UniProt Q9NRM0)
Sequence (Q9NRM0 other isoform, or with tags, fused parts or gaps): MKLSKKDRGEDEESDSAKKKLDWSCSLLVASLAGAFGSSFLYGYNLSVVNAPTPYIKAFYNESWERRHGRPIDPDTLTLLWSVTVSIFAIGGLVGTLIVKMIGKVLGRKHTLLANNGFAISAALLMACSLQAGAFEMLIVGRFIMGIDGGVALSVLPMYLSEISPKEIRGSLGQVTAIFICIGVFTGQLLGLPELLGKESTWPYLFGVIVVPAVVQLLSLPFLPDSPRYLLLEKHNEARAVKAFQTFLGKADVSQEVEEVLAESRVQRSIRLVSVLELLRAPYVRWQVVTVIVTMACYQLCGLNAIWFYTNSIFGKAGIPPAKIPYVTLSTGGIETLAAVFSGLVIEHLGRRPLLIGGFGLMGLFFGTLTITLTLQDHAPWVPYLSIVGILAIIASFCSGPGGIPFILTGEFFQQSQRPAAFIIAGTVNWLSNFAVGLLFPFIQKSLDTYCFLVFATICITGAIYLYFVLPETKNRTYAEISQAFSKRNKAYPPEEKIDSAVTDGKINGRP
Test: Evaluation of human GLUT9 inhibitory activity ([14C] uric acid uptake in human GLUT9 expressing HEK293T cells transduced with Uricase/Hyper)
Assay type: cell-based
Conditions: HEK-293T, 10 μM compound, human GLUT9 stably expressing HEK293T cells, read-out: GLUT9 inhibitory rate at 10 μM of compound
parameterMeasured: inhibition at 10 µM (%)
Note: unit % is implicit; provide only the numeric part.

// worked examples, inhibition at 10 µM included
[[record]]
molecule = "CCCCc1cnc(-c2ccc(C(=O)N(C)C)cc2)c(-c2ccc(C(=O)O)cc2)n1 [Example 22]"
endpointunit = "%"
val = 9

[[record]]
molecule = "CCCCc1cnc(-c2ccc(O)cc2)c(-c2ccc(C(=O)O)cc2)n1 [Example 33]"
endpointunit = "%"
val = 28

[[record]]
molecule = "COc1ccc(-c2ncc(CC3CCCCC3)cc2-c2ccc(C(=O)O)cc2)cc1 [Example 47]"
endpointunit = "%"
val = 47


// next entry
Which inhibition at 10 µM value belongs to CCCCc1cnc(-c2ccc(OC)c(C(=O)O)c2)c(-c2ccc(C(=O)O)cc2)n1 [Example 15] ?
5

---

Molecular target: human GLUT9 (Homo sapiens (Human))
Assay: Evaluation of human GLUT9 inhibitory activity ([14C] uric acid uptake in human GLUT9 expressing HEK293T cells transduced with Uricase/Hyper)
Format: cell-based
Conditions: final 300 μM uric acid, 6 min, human GLUT9 stably expressing HEK293T cells, read-out: humans GLUT9 inhibitory activity (IC50 value (μM))
param class (str): category from IC50; see ranges b0 (below 0.1 µM), b1 (0.1 µM to below 0.5 µM), b2 (0.5 µM or more)

[[record]]
linenotation = "COCCCCc1cnc(-c2cc(F)c(OC)c(F)c2)c(-c2ccc(C(=O)O)c(Cl)c2)n1"
assaytarget = "human GLUT9 (Homo sapiens (Human))"
categorylabel = "b1"

[[record]]
linenotation = "CCCCc1cnc(-c2ccc(OC)cc2)c(-c2ccc(OCC(=O)O)cc2)n1"
assaytarget = "human GLUT9 (Homo sapiens (Human))"
categorylabel = "b2"


Just checking, what class would you give `CCCCc1cnc(-c2ccc(OC)cc2C)c(-c2ccc(C(=O)O)cc2)n1` here?
b2

// bin(item) where item = `CCCCc1cnc(-c2cc(F)c(OC)c(F)c2)c(-c2ccc(C(=O)O)cc2)n1`
b0

Where would `CCCCc1cnc(-c2ccc(C3COC3)cc2)c(-c2ccc(C(=O)O)cc2)n1` land among the classes by reported IC50?
b2

Which category does the recorded IC50 put `CCCCc1cnc(-c2ccc(OC)cc2)c(-c2ccc(C(=O)O)c(OC)c2)n1` in?
b1

Record `CCOCCc1cnc(-c2cc(F)c(OC)c(F)c2)c(-c2ccc(C(=O)O)cc2)c1` — which class?
b0

Form field 'band' for `CCCCc1cnc(-c2ccc(C(F)(F)F)c(C(F)(F)F)c2)c(-c2ccc(C(=O)O)cc2)n1`
b2

# bin lookup: classify `CCCCc1cnc(-c2ccc(C(F)(F)F)c(F)c2)c(-c2ccc(C(=O)O)cc2)n1` by its IC50
b1

In plain terms, what class is `CCCCc1cnc(-c2ccc(C(F)(F)F)c(C)c2)c(-c2ccc(C(=O)O)cc2)n1` ?
b1

In plain terms, what class is `CCOCCc1cnc(-c2cc(F)c(OC)c(F)c2)c(-c2ccc(C(=O)O)cc2)n1` ?
b2

Class for `CCOCCCc1cnc(-c2ccc(OC)cc2)c(-c2ccc(C(=O)O)cc2)c1` ?
b0

Could you place `CCCc1cnc(-c2ccc(OC)cc2)c(-c2ccc(C(=O)O)cc2)n1` in its proper category? Many thanks.
b1

Place this compound in its band: `CCCCc1cnc(-c2ccc(OC)cc2)c(-c2ccc(C(=O)O)cc2F)n1`
b0

Consider `COCCCCc1cnc(-c2ccc(OC)cc2)c(-c2ccc(C(=O)O)c(C)c2)c1` . To which IC50 class does it belong?
b0

Into which category would you place `CCOCCc1cnc(-c2cc(F)c(OC)c(F)c2)c(-c2ccc(C(=O)O)c(Cl)c2)c1` ?
b1

Categorize the following entry: `CCCCCCc1cnc(-c2ccc(OC)cc2)c(-c2ccc(C(=O)O)cc2)c1`
b0

Class? Entry: `CCCCc1cnc(-c2ccc(C(C)(C)C)cc2)c(-c2ccc(C(=O)O)cc2)n1`
b2

// return the class label for `COCCc1cnc(-c2ccc(OC)cc2)c(-c2ccc(C(=O)O)cc2)c1`
b2

---

Target: human GLUT9 (Homo sapiens (Human))
Experiment: Evaluation of human GLUT9 inhibitory activity ([14C] uric acid uptake in human GLUT9 expressing HEK293T cells transduced with Uricase/Hyper)
Assay type: cell-based
Conditions: final 300 μM uric acid, 6 min, human GLUT9 stably expressing HEK293T cells, read-out: humans GLUT9 inhibitory activity (IC50 value (μM))
As shown below, each of these compounds has a reported IC50 value.
Numeric answer only, unit µM assumed.

Which IC50 is listed for COc1ccc(-c2ncc(CC(C)C)cc2-c2ccc(C(=O)O)cc2)cc1 [Example 58] ?
0.052

Look up IC50 for this compound: COCCCCc1cnc(-c2ccc(OC)cc2)c(-c2ccc(C(=O)O)cc2)n1 [Example 20]
0.12

Which IC50 value belongs to CCCCc1cnc(-c2cc(F)c(OC)c(Cl)c2)c(-c2ccc(C(=O)O)cc2)n1 [Example 64] ?
0.0987

Give the measured IC50 of CCCOCc1cnc(-c2cc(F)c(OC)c(F)c2)c(-c2ccc(CCC(=O)O)cc2)c1 [Example 146] .
0.139

Fill in the blank: the reported IC50 of COCCCc1cnc(-c2cc(F)c(OC)c(F)c2)c(-c2ccc(C(=O)O)cc2)c1 [Example 107] is ____.
0.0627

// lookup IC50 for CCCCc1cnc(-c2ccc(OC)cc2)c(-c2ccc(CCC(=O)O)cc2)n1 [Example 71]
0.132

Tell me the measured IC50 of COCCCc1cnc(-c2ccc(OC)c(F)c2)c(-c2ccc(CCC(=O)O)cc2)c1 [Example 108] , please.
0.0712

Request the reported IC50 associated with CCCCc1cnc(-c2ccc(OC)c(Cl)c2)c(-c2ccc(C(=O)O)cc2)n1 [Example 16]
0.0819

---

inhibition at 10 µM: recorded values
Molecular target: human GLUT9 (Homo sapiens (Human))
Assay: Evaluation of human GLUT9 inhibitory activity ([14C] uric acid uptake in human GLUT9 expressing HEK293T cells transduced with Uricase/Hyper)
Assay type: cell-based
Conditions: HEK-293T, 10 μM compound, human GLUT9 stably expressing HEK293T cells, read-out: GLUT9 inhibitory rate at 10 μM of compound
Counter-ions that a name gives are not always drawn.
Please give a number only; it is taken to be in %.

# annotated cases, reported inhibition at 10 µM shown
[[record]]
compound = "CCCCc1cnc(-c2ccc(C(=O)O)cc2)c(-c2ccc(C(=O)O)cc2)n1"
val = 9

[[record]]
compound = "CCCCNC(=O)c1cnc(-c2ccc(OC)cc2)c(-c2ccc(C(=O)O)cc2)c1 [Example 76, Hydrochloride]"
val = 10


Could you now consider this next compound?
# get_value(readout='inhibition at 10 µM', item= `COc1ccc(-c2ncc(C3CCOCC3)cc2-c2ccc(C(=O)O)cc2)cc1` )
45

---

Molecular target: human GLUT9 (Homo sapiens (Human), UniProt Q9NRM0)
Assay: Evaluation of human GLUT9 inhibitory activity ([14C] uric acid uptake in human GLUT9 expressing HEK293T cells transduced with Uricase/Hyper)
Format: cell-based
Details: final 300 μM uric acid, 6 min, human GLUT9 stably expressing HEK293T cells, read-out: humans GLUT9 inhibitory activity (IC50 value (μM))
parameterMeasured: IC50 (µM)
Numbers only here, please. The scale is µM.

Take a look at these entries with their results.
[[record]]
molecule = "COc1ccc(-c2ncc(C(C)C)cc2-c2ccc(C(=O)O)cc2)cc1 [Example 57]"
val = 0.344

[[record]]
molecule = "CCCCc1cnc(-c2ccc(OC)cc2)c(-c2ccc(C(=O)O)c(C)c2)n1 [Example 83]"
val = 0.0662

[[record]]
molecule = "COCCCc1cnc(-c2ccc(OC)cc2)c(-c2ccc(C(=O)O)cc2)c1 [Example 84]"
val = 0.117

[[record]]
molecule = "COc1ccc(-c2ncc(CCC3CCCC3)cc2-c2ccc(C(=O)O)cc2)cc1 [Example 63]"
val = 0.659


// returns reported IC50 for input CCCCc1cnc(-c2ccc(Cl)cc2)c(-c2ccc(C(=O)O)cc2)n1 [Example 31]
0.134
